ASSAYED SYSTEM: Human Factor P (human, UniProt P27918 29-469)
Sequence (P27918 29-469 limits assumed): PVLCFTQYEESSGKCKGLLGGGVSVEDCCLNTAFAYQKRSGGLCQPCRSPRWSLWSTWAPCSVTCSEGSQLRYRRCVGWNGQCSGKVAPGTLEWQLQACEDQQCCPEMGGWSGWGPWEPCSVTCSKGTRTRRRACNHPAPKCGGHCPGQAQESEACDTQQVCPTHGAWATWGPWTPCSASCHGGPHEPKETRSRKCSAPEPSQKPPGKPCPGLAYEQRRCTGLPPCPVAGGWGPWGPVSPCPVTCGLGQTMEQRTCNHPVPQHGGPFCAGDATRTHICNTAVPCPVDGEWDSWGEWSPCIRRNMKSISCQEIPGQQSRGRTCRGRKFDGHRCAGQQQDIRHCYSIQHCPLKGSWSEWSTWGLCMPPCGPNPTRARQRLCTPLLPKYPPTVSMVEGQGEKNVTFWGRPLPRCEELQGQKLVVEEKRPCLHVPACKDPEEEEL
METHOD SUMMARY: cell-based or functional assay
For each of the binders below, state its Inhibition of C3a generation, 20% human serum.
Respond with the bare value in nM.

Query: Give its Inhibition of C3a generation, 20% human serum value. Item: NVS967 (Fab, V domains shown, Disulfide-bridged Fab; also called Fab NVS967) VH: EVQLVQSGAEVKKPGASVKVSCKASGYTFTSHYMHWVRQAPGQGLEWMGNINPVDGGTEYAQKFQGRVTMTRDTSISTAYMELSSLRSEDTAVYYCARDGIEHGGHYYWGYLFDIWGQGTLVTVSS VL: SYVLTQPPSVSVAPGKTARISCSGDSIREYYVHWYQQKPGQAPVLVIGDDTNRPSGIPERFSGSNSGNTATLTISRAQAGDEADYYCAAWDFSPAIVFGGGTKLTVLG
Response: 43.5

Query: Would you mind telling me what Inhibition of C3a generation, 20% human serum value was observed for NVS966 (Fab, V domains shown, Disulfide-bridged Fab; also called Fab NVS966) VH: EVQLVQSGAEVKKPGESLKISCKGSGYSFTNYWIGWVRQMPGKGLEWMGRIDPGESLTNYAPSFQGQVTISADKSISTAYLQWSSLKASDTAMYYCARTGVADVDMPFAHWGQGTLVTVSS VL: SYVLTQPPSVSVAPGKTARISCSGDNLGSYYVNWYQQKPGQAPVLVIYGDSERPSGIPERFSGSNSGNTATLTISRAQAGDEADYYCGSWDITSFVFGGGTKLTVLG ?
Response: 41.1

Query: Fill in: Inhibition of C3a generation, 20% human serum of NVS965 (Fab, V domains shown, Disulfide-bridged Fab; also called Fab NVS965) VH: EVQLVQSGAEVKKPGSSVKVSCKASGGTFNSYAISWVRQAPGQGLEWMGRIIPIFGTANYAQKFQGRVTITADESTSTAYMELSSLRSEDTAVYYCARHGGYSFDSWGQGTLVTVSS VL: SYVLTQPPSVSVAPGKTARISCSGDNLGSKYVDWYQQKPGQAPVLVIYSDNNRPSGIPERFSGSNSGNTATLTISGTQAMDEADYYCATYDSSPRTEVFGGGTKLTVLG is ___
Response: 31.3
